Source: PubChem BioAssay (NCI)

# Test system: RPMI-8226 leukemia
# method_description: NCI-60 one-dose screen, 48 h (100 = growth as untreated, 0 = no growth, -100 = all killed)
# conditions: 10 µM unless noted
Compounds without any hit were thinned out: in the full panel of roughly 83,000, 20% have a hit.
Catalogue of growth readings, one per entry.

{"columns": ["compound", "tested_target", "growth, %"],
 "data": [
  ["C/C(=N/OC(=O)N(C)C)c1ccc(Cl)c(Cl)c1", "RPMI-8226 leukemia", 89],
  ["CC1OC(=O)C(C(C)C)NC(=O)C(C(C)C)OC(=O)C(C(C)C)NC(=O)C(C)OC(=O)C(C(C)C)NC(=O)C(C(C)C)OC(=O)C(C(C)C)NC(=O)C(C)OC(=O)C(C(C)C)NC(=O)C(C(C)C)OC(=O)C(C(C)C)NC1=O (configuration not stated)", "RPMI-8226 leukemia", -23.2],
  ["CO/N=C1\\CC[C@]2(C)[C@H]3CC[C@]4(C)C(=O)CC[C@H]4[C@@H]3C[C@@H]3SC(N)=N[C@@]32C1", "RPMI-8226 leukemia", 93.2],
  ["N#CC(NC(=O)CCl)=C(Cl)Cl", "RPMI-8226 leukemia", -22],
  ["CCOP(=O)(NC)OCC", "RPMI-8226 leukemia", 92.8],
  ["CC[C@H](C)[C@H](NC(=O)c1cnccn1)C(=O)N(C)[C@H](C[C@@H](OC(C)=O)c1nc(C(=O)N[C@@H](Cc2ccccc2)C[C@H](C)C(=O)OC)cs1)C(C)C", "RPMI-8226 leukemia", 22.5],
  ["CC1(C)N=C(N)N=C(N)N1c1ccc(CCC(=O)Nc2ccc(S(=O)(=O)F)cc2)cc1", "RPMI-8226 leukemia", 34.4]
]}

----------
# Test system: SN12C renal
# method_description: NCI-60 one-dose screen, 48 h
# conditions: 10 µM unless noted
The panel holds about 83,000 compounds, 20% with a hit somewhere; the sample as a whole holds those more often. Calls of active or inactive are those of the source. How the source made its calls: active means growth percent below 10; inactive means the rest.
Outcomes: Yes for active, No for inactive

{"columns": ["molecule", "class"],
 "data": [
  ["O=S(=O)(c1ccc(O)cc1)c1ccccc1O", "No"],
  ["CC[C@H](C)[C@H](NC(=O)CN(C)C)C(=O)N(C)[C@H](C[C@@H](OC(C)=O)c1nc(C(=O)NC23CC(C(=O)OC)(C2)C3)cs1)C(C)C", "No"],
  ["C[C@]12CC[C@H]3[C@@H](C[C@@H]4SC(Nc5cccc(F)c5)=N[C@@]45CC(=O)CC[C@]35C)[C@@H]1CCC2=O", "No"],
  ["C[N+]1(CC#CC[N+]2(C)CCCC2)CCCC1", "No"],
  ["O=P(O)(Nc1ccccc1)Nc1ccccc1", "No"],
  ["C[C@]12CC[C@H]3[C@@H](CC=C4c5nc(-c6ccc(Br)cc6)sc5CC[C@@]43C)[C@@H]1CC[C@@H]2O", "No"],
  ["C#Cc1cccc(Nc2nc(Cl)nc3cc(NC(=O)CF)ccc23)c1", "No"],
  ["O=[N+]([O-])c1ccc(CI)cc1", "No"],
  ["CC1OC(=O)C(C(C)C)NC(=O)C(C(C)C)OC(=O)C(C(C)C)NC(=O)C(C)OC(=O)C(C(C)C)NC(=O)C(C(C)C)OC(=O)C(C(C)C)NC(=O)C(C)OC(=O)C(C(C)C)NC(=O)C(C(C)C)OC(=O)C(C(C)C)NC1=O (centres undefined)", "Yes"],
  ["c1ccc(CCN2CCCCC2)nc1", "No"],
  ["COC[C@H]1OC(=O)c2coc3c2[C@@]1(C)C1=C(C3=O)[C@@H]2CCC(=O)[C@@]2(C)C[C@H]1OC(C)=O", "No"],
  ["C[C@@H]1C/C=C\\C(=O)O[C@H](/C=C/C#C/C=C/C(C)(C)[C@@H](O)c2cccc(O)c2Br)[C@@H](C)/C=C/[C@H](C)C[C@H](OC(N)=O)C1", "No"],
  ["Cc1nnc([S-])o1.[Au+].c1ccc([PH+](c2ccccc2)c2ccccc2)cc1", "No"],
  ["Cc1cc[c-]cc1.Fc1c[c-]c(-c2ccccn2)c(F)c1.N#CCC[PH+](CCC#N)c1ccccc1.[Pt+2]", "No"],
  ["Cc1ccc(S(=O)(=O)n2cc([C@@]3(O)C[C@H](CSC#N)OC3=O)c3ccccc32)cc1", "No"],
  ["O=C=Nc1ccc(Br)cc1", "No"],
  ["CCCN1C(=O)NC(=O)C(CC)(N2C(=O)c3c(F)c(F)c(F)c(F)c3C2=O)C1=O (centres undefined)", "Yes"],
  ["N[C@@H](CCC(=O)CCl)C(=O)O", "No"],
  ["C[C@H](O)CCC(=O)c1ccoc1", "No"]
]}

----------
# Tested on: HCT-116 colon
# method_description: NCI-60 one-dose screen, 48 h
# conditions: 10 µM unless noted
This is part of a sample that, as a whole, favours compounds with a hit. Of some 83,000 tested, about 20% had one in any assay. Activity calls are given as the source filed them. The calls were made as follows: active = growth percent below 10; inactive = the rest.
Outcomes: yes (1) for active, no (0) for inactive

{"columns": ["compound", "tested_target", "class"],
 "data": [
  ["O=c1[nH]c(=O)[nH]c(=O)[nH]1", "HCT-116 colon", "no (0)"],
  ["ClC1OC(Cl)(Cl)C(Cl)(Cl)OC1(Cl)Cl (stereo not drawn)", "HCT-116 colon", "no (0)"],
  ["Cc1c2ccncc2c(C)c2c1[nH]c1ccccc12", "HCT-116 colon", "yes (1)"],
  ["C=CCOC(=O)C(Br)CC (stereo not drawn)", "HCT-116 colon", "no (0)"],
  ["COC12CC3C4=CCOC5CC(=O)N6c7ccccc7C1(CCN2C4)C6C53 (stereo not drawn)", "HCT-116 colon", "no (0)"],
  ["O=[N+]([O-])c1ccc2scc3c4ccccc4nc-3c2c1", "HCT-116 colon", "yes (1)"],
  ["CCCCOCCOP(=O)(OCCOCCCC)OCCOCCCC", "HCT-116 colon", "no (0)"],
  ["CC1=C([Te]c2ccccc2)C(=O)c2ccccc2C1=O", "HCT-116 colon", "yes (1)"],
  ["C[C@]12CCc3sc(Nc4ccc(O)cc4)nc3C1=CC[C@@H]1[C@@H]2CC[C@]2(C)C(=O)CC[C@@H]12", "HCT-116 colon", "yes (1)"],
  ["CCCCn1c(=O)c(C(=O)NCc2ccccc2Cl)c(O)c2ccccc21", "HCT-116 colon", "no (0)"],
  ["N#CC(N)c1ccccc1 (stereo not drawn)", "HCT-116 colon", "no (0)"],
  ["CC[C@H](C)[C@H]1O[C@]2(C=C[C@@H]1C)C[C@@H]1C[C@@H](C/C=C(\\C)[C@@H](O[C@H]3C[C@H](OC)[C@@H](O[C@H]4C[C@H](OC)[C@@H](NC)[C@H](C)O4)[C@H](C)O3)[C@@H](C)/C=C/C=C3\\CO[C@@H]4[C@H](O)C(C)=C[C@@H](C(=O)O1)[C@]34O)O2", "HCT-116 colon", "yes (1)"],
  ["CN1[C@@H](CC(=O)c2ccccc2)CCC[C@H]1CC(=O)c1ccccc1", "HCT-116 colon", "no (0)"],
  ["C[C@]12CCc3sc(Nc4ccc(F)cc4F)nc3C1=CC[C@@H]1[C@@H]2CC[C@]2(C)C(=O)CC[C@@H]12", "HCT-116 colon", "yes (1)"],
  ["N[C@@H](CCC(=O)CCl)C(=O)O", "HCT-116 colon", "no (0)"],
  ["COC(=O)CCP(CCC(=O)OC)c1ccccc1", "HCT-116 colon", "no (0)"],
  ["CC(=O)c1cccc(S(=O)(=O)F)c1", "HCT-116 colon", "no (0)"],
  ["CC1OC(=O)C(C(C)C)NC(=O)C(C(C)C)OC(=O)C(C(C)C)NC(=O)C(C)OC(=O)C(C(C)C)NC(=O)C(C(C)C)OC(=O)C(C(C)C)NC(=O)C(C)OC(=O)C(C(C)C)NC(=O)C(C(C)C)OC(=O)C(C(C)C)NC1=O (stereo not drawn)", "HCT-116 colon", "yes (1)"],
  ["CCOC(=O)C1C(C=C(C)C)C1(C)C (stereo not drawn)", "HCT-116 colon", "no (0)"],
  ["O=C(NC(Cl)=C(Cl)Cl)P(=O)(c1ccccc1)c1ccccc1", "HCT-116 colon", "no (0)"],
  ["CC12CCC3C4CCC(=O)C=C4CCC3C1CC1CC(=O)OC12 (stereo not drawn)", "HCT-116 colon", "no (0)"],
  ["Cc1ccc(S(=O)(=O)n2cc([C@@]3(O)C[C@H](CSC#N)OC3=O)c3ccccc32)cc1", "HCT-116 colon", "no (0)"],
  ["O=[N+]([O-])c1ccc(P(=O)(O)O)cc1", "HCT-116 colon", "no (0)"],
  ["C/C(=C\\c1ccn(-c2ccc(N)cc2F)n1)[C@@H]1C[C@@H]2O[C@]2(C)CCC[C@H](C)[C@H](O)[C@@H](C)C(=O)C(C)(C)[C@@H](O)CC(=O)O1", "HCT-116 colon", "no (0)"],
  ["CN1CCN(c2ccc(Cl)cc2)CC1", "HCT-116 colon", "no (0)"],
  ["Nc1ccc(S(=O)(=O)F)cc1", "HCT-116 colon", "no (0)"],
  ["O=CC1(c2ccccc2)CCN(Cc2ccccc2)CC1", "HCT-116 colon", "no (0)"],
  ["Oc1ccccc1C=NCCN=Cc1ccccc1O.[Fe]", "HCT-116 colon", "no (0)"],
  ["O=C(O)c1cc([N+](=O)[O-])cc([N+](=O)[O-])c1", "HCT-116 colon", "no (0)"],
  ["C[C@]12CCc3nc(-c4ccc(O)c(O)c4)sc3C1=CC[C@@H]1[C@@H]2CC[C@]2(C)C(=O)CC[C@@H]12", "HCT-116 colon", "no (0)"],
  ["c1ccc(CCN2CCCCC2)nc1", "HCT-116 colon", "no (0)"],
  ["O=Cc1cn(Cc2ccccc2)c2ccccc12", "HCT-116 colon", "no (0)"],
  ["COC12CC3(C)C(C4=CC(=O)OC4)CCC3(O)C3CCC4=CC(=O)CCC4(CO1)C32 (stereo not drawn)", "HCT-116 colon", "no (0)"],
  ["O=NN1CCCCC1", "HCT-116 colon", "no (0)"],
  ["CC12CCC3C(CCC4CC(O)CCC43C)C1CCC2=O (stereo not drawn)", "HCT-116 colon", "no (0)"],
  ["Nc1cccnc1", "HCT-116 colon", "no (0)"],
  ["c1ccc2c(c1)sc1ccccc12", "HCT-116 colon", "no (0)"],
  ["CCCN1C(=O)NC(=O)C(CC)(N2C(=O)c3c(F)c(F)c(F)c(F)c3C2=O)C1=O (stereo not drawn)", "HCT-116 colon", "yes (1)"],
  ["OCCNC1CCCCC1", "HCT-116 colon", "no (0)"],
  ["C=CC[PH+](c1ccccc1)c1ccccc1.C=CC[PH+](c1ccccc1)c1ccccc1.[Pt+2].[S-]c1ncccn1.[S-]c1ncccn1", "HCT-116 colon", "yes (1)"],
  ["COC(=O)[C@@H](C)C[C@H](Cc1ccccc1)NC(=O)c1cccc([C@@H](C[C@H](C(C)C)N(C)C(=O)[C@@H](NC(=O)[C@H]2CCCCN2C)C2CC2)OC(C)=O)n1", "HCT-116 colon", "yes (1)"],
  ["O=S1(=O)OCCO1", "HCT-116 colon", "no (0)"],
  ["CNC(=O)CCl", "HCT-116 colon", "no (0)"]
]}
